Each recorded value in this set is attributed to patent US7795299B2.

# Tested on: MCF-7 (estrogen receptor positive breast cancer)
# Run description: In vitro anticancer assay (SRB), MCF-7
# Type: cell-based, human
# Experimental context: Homo sapiens, MCF7, 72 h; concentration that reduces cell growth by 50%, 3 days in culture, SRB; read-out: ED50, MCF-7 (ER+)
Exercise: state measured IC50 for each of the molecules provided.
Answers are plain numbers, in µg/mL.

Consider the following illustrative entries.
>  <Molecule>
CCc1cccc2c1ccc1c3c(c(=O)oc12)C(O)CO3 (stereo not shown)

>  <IC50, µg/mL>
5

$$$$
>  <Molecule>
C[C@H]1COC2=C1C(=O)C(=O)c1c2ccc2c1CCCC2(C)C [cryptotanshinone, reference compound]

>  <IC50, µg/mL>
0.41

$$$$
>  <Molecule>
O=c1oc2c3ccccc3c(Cl)cc2c2occc12

>  <IC50, µg/mL>
7

$$$$
>  <Molecule>
Cc1cccc2c1ccc1c3c(c(=O)oc12)C(O)CO3 (stereo not shown)

>  <IC50, µg/mL>
8.3

$$$$
>  <Molecule>
COc1cc2c3c(c(=O)oc2c2ccccc12)C(O)CO3 (stereo not shown)

>  <IC50, µg/mL>
5.6

$$$$
>  <Molecule>
Cc1coc2c1c(=O)oc1c3ccccc3ccc21

>  <IC50, µg/mL>
4

$$$$

The record that follows has no IC50 shown yet.
Query for MCF-7 (estrogen receptor positive breast cancer): what IC50 does the record show for O=c1oc2c(ccc3ccccc32)c2c1C(O)CO2 (stereo not shown) ?
12.5

---

# Tested on: MCF-7 (estrogen receptor positive breast cancer)
# Run description: In vitro anticancer assay (SRB), MCF-7
# Format: cell-based, human
# Experimental context: Homo sapiens, MCF7, 72 h; concentration that reduces cell growth by 50%, 3 days in culture, SRB; read-out: ED50, MCF-7 (ER+)
Where a name gives a salt, the structure may show the parent alone.
For each entry below, report its IC50 value.

>  <Molecule>
Cc1coc2c1c(=O)oc1c3ccccc3c(Cl)cc21

>  <IC50>
5 µg/mL

$$$$
>  <Molecule>
CCc1cccc2c1ccc1c3occc3c(=O)oc21

>  <IC50>
> 10 µg/mL

$$$$
>  <Molecule>
CC/C(=C(\c1ccccc1)c1ccc(OCCN(C)C)cc1)c1ccccc1 [TAM, tamoxifen citrate, reference compound]

>  <IC50>
5 µg/mL

$$$$
>  <Molecule>
CCc1cccc2c1ccc1c3occ(C)c3c(=O)oc21

>  <IC50>
0.45 µg/mL

$$$$
>  <Molecule>
O=c1oc2c(cc(Cl)c3ccccc32)c2c1C(O)CO2 (stereo not shown)

>  <IC50>
5.6 µg/mL

$$$$

// for each molecule in input: emit IC50
1. O=c1oc2c3ccccc3ccc2c2occc12
2. Cc1cccc2c1ccc1c3occc3c(=O)oc21

> 20 µg/mL
5.5 µg/mL

Required: IC50, one value per molecule below.
1. COc1cc2c3occc3c(=O)oc2c2ccccc12
2. Cc1coc2c1C(=O)C(=O)c1c-2ccc2c1CCCC2(C)C [tanshinone IIA, reference compound]
3. COc1cc2c3occ(C)c3c(=O)oc2c2ccccc12

["3.4 µg/mL", "0.38 µg/mL", "5 µg/mL"]

---

# Test system: SK-BR-3 (HER-2-overexpressing breast cancer)
# Run description: In vitro anticancer assay (SRB), SK-BR-3
# Format: cell-based, human
# Experimental context: Homo sapiens, SK-BR-3, 72 h; concentration that reduces cell growth by 50%, 3 days in culture, SRB; read-out: ED50, SK-BR-3 (ER−, HER2+)
Counter-ions that a name gives are not always drawn.
Measurement type: IC50

>  <Molecule>
COc1cc2c3occc3c(=O)oc2c2ccccc12

>  <Measurement type>
IC50

>  <Val>
4 µg/mL

$$$$
>  <Molecule>
CCc1cccc2c1ccc1c3occ(C)c3c(=O)oc21

>  <Measurement type>
IC50

>  <Val>
0.1 µg/mL

$$$$
>  <Molecule>
Cc1coc2c1c(=O)oc1c3ccccc3c(Cl)cc21

>  <Measurement type>
IC50

>  <Val>
4.5 µg/mL

$$$$
>  <Molecule>
Cc1cccc2c1ccc1c3occc3c(=O)oc21

>  <Measurement type>
IC50

>  <Val>
8.5 µg/mL

$$$$
>  <Molecule>
Cc1cccc2c1ccc1c3c(c(=O)oc12)C(O)CO3 (stereo not shown)

>  <Measurement type>
IC50

>  <Val>
8 µg/mL

$$$$

Please state IC50 for every molecule in the list that follows.
1. O=c1oc2c3ccccc3c(Cl)cc2c2occc12
2. O=c1oc2c(cc(Cl)c3ccccc32)c2c1C(O)CO2 (stereo not shown)
3. COc1cc2c3occ(C)c3c(=O)oc2c2ccccc12
4. COc1cc2c3c(c(=O)oc2c2ccccc12)C(O)CO3 (stereo not shown)
5. CC/C(=C(\c1ccccc1)c1ccc(OCCN(C)C)cc1)c1ccccc1 [TAM, tamoxifen citrate, reference compound]

> 10 µg/mL
8 µg/mL
8.6 µg/mL
9 µg/mL
5 µg/mL
